B1: Ankyrin-3, residues 4094 to 4171; numbered along this chain, Q12955 (parent)
chain: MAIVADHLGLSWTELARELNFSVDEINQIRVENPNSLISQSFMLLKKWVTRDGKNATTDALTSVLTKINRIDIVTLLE

# Variants of: B1
# assay_notes: abundance fitness (aPCA) (normalised: wild type 0, dead -1); higher = more abundant; growth selection in yeast, the domain comes from the species named
# conditions: Homo sapiens
endpoint_name: abundance fitness
Give the value as a plain number.

Look over these answered cases.
MAIVADHLMLSWTELARELNFSVDEINQIRVENPNSLISQSFMLLKKWVTRDGKNATTDALTSVLTKINRIDIVTLLE [G9M]: -0.244
MAIVADHLGLSWTELARELGFSVDEINQIRVENPNSLISQSFMLLKKWVTRDGKNATTDALTSVLTKINRIDIVTLLE [N20G]: -0.081
MAIVADHLGLSWTELARELNFSVDEINQIRVENPNSLISQSFMLLKKWVTRDGKNHTTDALTSVLTKINRIDIVTLLE [A56H]: -0.296
MAIVADHLGLSWTELARELNFSVDEINQIRVENPNSLISQSFMLLKKWVTRDGKNATTDALTSVLTKINRIDIVTLLI [E78I]: -0.219

Lab note: next variant to report on.
Per the record, MAIVADHLGLSWTELARELNFSVHEINQIRVENPNSLISQSFMLLKKWVTRDGKNATTDALTSVLTKINRIDIVTLLE [D24H] has abundance fitness of -0.068
